For each record, write down the corresponding GI50.
# Test system: NCI-H226 lung
# experiment_summary: NCI tumour cell line growth inhibition, 48 h

**Query** // GI50 lookup, key: COc1ccc(-c2cc(/C=C3\C(=O)Nc4cc(Cl)ccc43)[nH]n2)cc1
**Result** 13.1 µM

**Query** Please do the same for CC1CCC2C(C)C(=O)OC3OC4(C)CCC1C32OO4 (stereo unspecified) as well.
**Result** > 100 µM

**Query** Please do the same for COc1cc(OC)cc(Oc2cnc3cc(N)cc(N)c3n2)c1 as well.
**Result** 17.1 µM

**Query** Please do the same for Cc1ccc(C)c2c1C(=O)N(c1ccc(F)cc1F)C2=O as well.
**Result** > 100 µM

**Query** Please do the same for N#CC1C[C@@H]2CC3(CCC2CN1C(=O)c1ccccc1)OCCO3 (stereo partly specified) as well.
**Result** > 100 µM

**Query** Please do the same for O=C1C(=c2ccc(=C3C(=O)c4ccc([N+](=O)[O-])cc4[N+]3=O)cc2)N([O-])c2cc([N+](=O)[O-])ccc21 as well.
**Result** > 100 µM

###

For each record, write down the corresponding TGI.
# System: UACC-257 melanoma
# experiment_summary: NCI tumour cell line growth inhibition, 48 h

**Query** Lab note: need TGI for CC1(C)NC(=O)N(CCCCCCN2C(=O)NC(C)(C)C2=O)C1=O on UACC-257 melanoma, anyone have it?
**Result** > 100 µM

**Query** Please do the same for C[C@H](c1ccc(F)cc1CCCC(=O)O)N(c1cc(F)ccc1F)S(=O)(=O)c1ccc(Cl)cc1 as well.
**Result** > 100 µM

**Query** Please do the same for N#CC(C#N)=CNCCN1CCN(C=C(C#N)C#N)CC1 as well.
**Result** > 100 µM

**Query** Please do the same for Cc1cc2cc3cc(C)c(N)cc3nc2cc1N as well.
**Result** 8.57 µM

**Query** Please do the same for O=C(CCCn1c2c(sc3ccccc32)c(=O)n2nnc(-c3ccccc3)c12)NCCc1cnc[nH]1 as well.
**Result** 4.39 µM

**Query** Please do the same for COc1ccc(-c2cc(/C=C3\C(=O)Nc4cc(Cl)ccc43)[nH]n2)cc1 as well.
**Result** > 100 µM

**Query** Please do the same for CCn1c(-c2nonc2N)nc2c(C#CC(C)(C)O)ncc(OC3CCNCC3)c21 as well.
**Result** > 25 µM

**Query** Please do the same for CC(C)OP(=S)(NC(=S)c1ccccc1)OC(C)C as well.
**Result** > 100 µM

**Query** Please do the same for Clc1cc(-c2ccccc2)nc(Nc2nc3ccccc3[nH]2)n1 as well.
**Result** 44 µM

**Query** Please do the same for O=C1/C(=C/c2ccc(Cl)cc2)Oc2cc(O)ccc21 as well.
**Result** 90.1 µM

**Query** Please do the same for C/C=C1/CN2CCC34c5ccccc5N(C)C23C2CC1C4(C(=O)OC)C(OC(C)=O)O2 (configuration not stated) as well.
**Result** > 100 µM

**Query** Please do the same for Cn1c2ccc(F)cc2c2ccc3c(c21)C(=O)C=CC3=O as well.
**Result** 30.9 µM

**Query** Please do the same for O=C(O)CCCCn1ccc(=O)[nH]c1=O as well.
**Result** > 100 µM

**Query** Please do the same for CN1C(=O)CC2(C)c3cc(O)cc(Br)c3N(C)C12 (configuration not stated) as well.
**Result** > 100 µM

**Query** Please do the same for O=C(O)CN(c1ccccc1)S(=O)(=O)c1cccc([N+](=O)[O-])c1 as well.
**Result** > 100 µM

**Query** Please do the same for COc1cccc(C=O)c1C(=O)c1cc(O)ccc1O as well.
**Result** 46.3 µM

**Query** Please do the same for CN(C)CN1CSC(=S)N(CN(C)C)C1 as well.
**Result** > 100 µM

**Query** Please do the same for COc1cc(C2c3cc4c(cc3OC(NNc3ccccc3)C2C)OCO4)cc(OC)c1OC (configuration not stated) as well.
**Result** > 100 µM

**Query** Please do the same for COC(=O)[C@H](CC(C)C)NC(=O)[C@H](Cc1ccccc1)N1CC2C=CC1C2 (some centres not stated) as well.
**Result** > 100 µM

**Query** Please do the same for COc1cccc2c1C(=O)c1c(O)c3c(c(O)c1C2=O)C[C@@](O)(C(C)=O)CC3S(=O)(=O)O (some centres not stated) as well.
**Result** > 100 µM

**Query** Please do the same for CCOC(=O)/C=C(/C(=O)OCC)n1cc(C)c(=O)n(Cc2cnnn2COCCOC(C)=O)c1=O as well.
**Result** 28.6 µM

**Query** Please do the same for COc1ccc2c(c1)Oc1cc(O)ccc1[C@H]2c1ccccc1C(=O)NC(C)c1ccccc1 (some centres not stated) as well.
**Result** 37.3 µM

###

# Tested on: MDA-MB-435
# experiment_summary: NCI tumour cell line growth inhibition, 48 h
measured_property: log10 of TGI (log10 of the value in µM)
Friendly reminder: values = log10 of TGI, unit µM.

**Query** // log10 of TGI lookup, key: COC(=O)c1ccc2nc(-c3cc4ccccc4n3C)n(CCCCOc3cc4c(cc3OC)C(=O)N3CCC[C@H]3C=N4)c2c1
**Result** 0.25

**Query** Please do the same for O=C(/C=C/C12c3ccccc3C(c3ccccc31)C1C(=O)N(c3ccc(Cl)cc3)C(=O)C12)c1ccccn1 (centres undefined) as well.
**Result** -0.01

**Query** Please do the same for C[C@@]1(CCCCCCCCCCc2ccccc2)C[C@@]2(C)OC(=O)C[C@H]2OO1 as well.
**Result** 0.53

**Query** Please do the same for O=c1ccc2ccc(CBr)cc2o1 as well.
**Result** 1.02

**Query** Please do the same for CN1CCN(Cc2ccc(NC(=O)c3cncc(C#Cc4c(N)ncc5ccc(C#N)cc45)c3)cc2C(F)(F)F)CC1 as well.
**Result** 0.03

**Query** Please do the same for COC1=C[C@]2(CCC(=O)O2)[C@@H]2Cc3ccccc3[C@H](O)[C@@H]2C1=O as well.
**Result** 1.49

**Query** Please do the same for Cc1ccccc1NC(=O)Cc1csc(N/N=C2\NC(=O)/C(=C/c3cccc([N+](=O)[O-])c3)S2)n1 as well.
**Result** 1.60

**Query** Please do the same for O=C1/C(=C/c2ccc(O)cc2)CCCC1CN1CCCCC1 (centres undefined) as well.
**Result** 1.33

###

For each record, write down the corresponding TGI.
# Test system: OVCAR-8 ovarian
# experiment_summary: NCI tumour cell line growth inhibition, 48 h

**Query** // TGI lookup, key: N[C@H]1c2c(Br)sc(Br)c2C(=O)[C@H]1O
**Result** 43.7 µM

**Query** Please do the same for CNC(=O)c1nn(C)c2c1C(C)(C)Cc1cnc(Nc3cccc(N4CCN(C)CC4)c3)nc1-2 as well.
**Result** 22.3 µM

**Query** Please do the same for COc1cc(CC(C)=O)cc(OC)c1 as well.
**Result** > 100 µM

**Query** Please do the same for CCOC(=O)c1[nH]cc(C)c1-c1cccn1-c1ccc(Cl)cc1[N+](=O)[O-] as well.
**Result** 78.9 µM

**Query** Please do the same for COC(=O)c1ccc2nc(-c3cc4ccccc4n3C)n(CCCCOc3cc4c(cc3OC)C(=O)N3CCC[C@H]3C=N4)c2c1 as well.
**Result** 7.25 µM

**Query** Please do the same for Clc1cc(-c2ccccc2)nc(Nc2nc3ccccc3[nH]2)n1 as well.
**Result** 54.2 µM

**Query** Please do the same for Cc1nn(C(=O)c2ccccc2O)c2c1C(c1ccc(O)cc1O)SC(N)=N2 (stereo unspecified) as well.
**Result** > 10 µM

**Query** Please do the same for Fc1ccc(-c2sc(-c3ccsc3)cc2Cc2ccsc2)cc1 as well.
**Result** > 10 µM

**Query** Please do the same for Cc1cc(=O)oc2cc(OCCCOc3ccc4c(C)cc(=O)oc4c3)ccc12 as well.
**Result** > 100 µM

**Query** Please do the same for Cc1ccccc1NC(=O)Cc1csc(N/N=C2\NC(=O)/C(=C/c3cccc([N+](=O)[O-])c3)S2)n1 as well.
**Result** > 100 µM

**Query** Please do the same for CCn1c2nc(=O)n(CCCCCCCCSC(c3ccccc3)(c3ccccc3)c3ccccc3)c(=O)c-2nc2ccccc21 as well.
**Result** > 100 µM

**Query** Please do the same for O=C(/C=C/C12c3ccccc3C(c3ccccc31)C1C(=O)N(c3ccc(Cl)cc3)C(=O)C12)c1ccccn1 (stereo unspecified) as well.
**Result** > 100 µM

**Query** Please do the same for CC(=O)C(=O)NC1/C=C(C)\C=C/C(O)C/C=C(C)\C=C/C(O)CC2OC(=O)C1(C)C(=O)C2C (stereo unspecified) as well.
**Result** > 100 µM

**Query** Please do the same for COC(=O)[C@H](CC(C)C)NC(=O)[C@H](Cc1ccccc1)N1CC2C=CC1C2 (stereo partly specified) as well.
**Result** > 100 µM

**Query** Please do the same for CNC(=O)N(CCC#N)CCN(C(=O)NC)c1ccccc1 as well.
**Result** > 100 µM

**Query** Please do the same for CC1(C)NC(=O)N(CCCCCCN2C(=O)NC(C)(C)C2=O)C1=O as well.
**Result** > 100 µM

**Query** Please do the same for CCOC(=O)/C=C(/C(=O)OCC)n1cc(C)c(=O)n(Cc2cnnn2COCCOC(C)=O)c1=O as well.
**Result** 29.1 µM

**Query** Please do the same for O=C(c1ccccc1)N1CCN(C(=S)NC2CCCCC2)C1=S as well.
**Result** 32.9 µM

**Query** Please do the same for CN(C)C(=O)Oc1c(Br)cc(Br)cc1C(=O)OCc1ccccc1 as well.
**Result** > 100 µM

**Query** Please do the same for O=c1cc(-c2ccccc2)[nH]c2ncccc12 as well.
**Result** 4.01 µM

**Query** Please do the same for O=c1[nH]c(=O)c2ncn(-c3ccc([N+](=O)[O-])cn3)c2[nH]1 as well.
**Result** > 100 µM

**Query** Please do the same for Nc1nc(N)c(CCCCc2ccccc2)c(C=O)n1 as well.
**Result** 45 µM

**Query** Please do the same for N#Cc1c(NCc2ccccc2)nc(NCc2ccccc2)c(C#N)c1-c1ccc(Cl)cc1 as well.
**Result** > 100 µM

**Query** Please do the same for CC(=O)O[C@H]1C(=O)[C@@]2(C)[C@H]([C@H](OC(=O)c3ccccc3)[C@]3(O)C[C@H](OC(=O)[C@H](O)[C@@H](NC(=O)c4ccccc4)c4ccc5ccccc5c4)C(C)=C1C3(C)C)[C@]1(OC(C)=O)CO[C@@H]1C[C@@H]2O as well.
**Result** 25.8 µM

**Query** Please do the same for COC(=O)Cc1c([C@@]2(C)CCCC(C)(C)C2)ccc2c1C(=O)OC2 as well.
**Result** > 100 µM

**Query** Please do the same for N#CC(C#N)=NNc1ccc2cn[nH]c2c1 as well.
**Result** > 100 µM
